tested on: MDA-MB-468 breast; experiment: NCI-60 one-dose screen, 48 h (100 = growth as untreated, 0 = no growth, -100 = all killed); conditions: 10 µM unless noted
Compounds without any hit were thinned out: in the full panel of roughly 83,000, 20% have a hit.
Output schema: class label derived from growth. Mapping: L = under 20%, M = from 20% up to 70%, H = 70% and over

Worked cases, answers included:
CC[C@]12C=CCN3CC[C@@]4(c5ccc(OC)cc5N(C)[C@H]4[C@@](O)(C(=O)OC)[C@@H]1OC(=O)CCC[P+](c1ccccc1)(c1ccccc1)c1ccccc1)[C@@H]32: L
O=C(CCCCCCN1CC(=O)N2[C@H](c3cc(Br)cs3)c3[nH]c4ccccc4c3C[C@H]2C1=O)NO: M
O=C(CCN1CCCC1)Nc1ccc2c(NCc3ccccc3)c3ccccc3nc2c1: L
O=[N+]([O-])c1ccc(C(Br)c2ccc([N+](=O)[O-])cc2)cc1: H
COC(=O)c1cccc(NC2=CC(=O)C(C)=C(C)C2=O)c1: M

**Q:** Category lookup for the compound `CC1=CC(=Nc2ccc(N(C)C)cc2)C=C(C)C1=O`
**A:** L

**Q:** # classify by growth band: `Cc1c(C(N)=O)sc2c1c(=O)n(Cc1ccccc1)c1nnc(-c3ccc(Br)cc3)n21`
**A:** M

**Q:** Hi there! Could you help me figure out the category for `COc1nc(OC)nc(-c2cc(-c3cc(OC)c(OC)c(OC)c3)no2)n1` please?
**A:** H

Values were extracted from PubChem BioAssay (NCI).
